Measured values drawn from PubChem BioAssay AID463204 for this set.

# Tested on: S. cerevisiae Mot1-301 ts growth rescue, BacTiter-Glo ATP luminescence
# Assay Details: restored Mot1-301 yeast growth at 38.5C – whole organism, S. cerevisiae, Mot1-301 ts mutant, luminescence, dose retest, SUMOylation pathway inhibitor project, confirmation (AID 463204);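 also: growth at restrictive 38.5 degrees C of Mot1-301 OY566 strain; actives raise luminescence by restoring growth of the ts mutant at high temperature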
Active and inactive are the calls of the source.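 The calls were made as follows: active = AC50 no more than ten times the top concentration tested, that is within one log above it; inconclusive = flat curve fit with activity between 30% and 70%, or invalid poor fit; inactive = AC50 beyond ten times the top tested dose.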
Pick one and only one: 1 (yes) = active, 0 (no) = inactive

Before answering, review these 10 worked examples.
In: # outcome recorded in this test, key = CSc1ccccc1NC(=O)COc1nsnc1N1CCOCC1
Out: 0 (no)

In: # outcome recorded in this test, key = Cc1ccc(SCCC(=O)Nc2ccc(OCc3ccccc3)cc2)cc1
Out: 0 (no)

In: # outcome recorded in this test, key = COC(=O)c1ccc(CN2CCN(C3CCCCC3)C(CCO)C2)cc1 (stereo not drawn)
Out: 0 (no)

In: # outcome recorded in this test, key = Nc1cc(Cl)ccc1N1CCOCC1
Out: 0 (no)

In: # outcome recorded in this test, key = COc1ccc(NC(=O)c2ccc(COc3ccccc3OC)o2)cc1OC
Out: 0 (no)

In: # outcome recorded in this test, key = O=C(COc1ncnc2c(Cl)cc(Cl)cc12)NCCC1=CCCCC1
Out: 0 (no)

In: # outcome recorded in this test, key = N/C(=N\NC(=O)c1sccc1OCc1ccc(Cl)cc1Cl)c1ccccn1
Out: 0 (no)

In: # outcome recorded in this test, key = CSc1ccc(Cl)c(C(=O)Nc2ccc(N3CCOCC3)cc2)c1
Out: 0 (no)

In: # outcome recorded in this test, key = Cc1nnc(N=c2ssnc2Cl)o1
Out: 1 (yes)

In: # outcome recorded in this test, key = Cc1cc(C)c2cc(C)c3nnc(SCC(=O)NCc4ccc5c(c4)OCO5)n3c2c1
Out: 0 (no)

More entries:
In: # outcome recorded in this test, key = O=C(O)c1cc(Oc2ccc(C(F)(F)F)cc2Cl)ccc1[N+](=O)[O-]
Out: 0 (no)

In: # outcome recorded in this test, key = CC1CN(CCCOc2ccc([N+](=O)[O-])cc2)CC(C)O1 (stereo not drawn)
Out: 0 (no)

In: # outcome recorded in this test, key = CN1C(=O)/C(=C/c2ccc(OCc3ccccc3F)cc2)NC1=S
Out: 0 (no)

---

# System: S. cerevisiae Mot1-301 ts growth rescue, BacTiter-Glo ATP luminescence
# Assay Details: restored Mot1-301 yeast growth at 38.5C – whole organism, S. cerevisiae, Mot1-301 ts mutant, luminescence, dose retest, SUMOylation pathway inhibitor project, confirmation (AID 463204)
Active and inactive are the calls of the source.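 Rule for the calls: active = AC50 no more than ten times the top concentration tested, that is within one log above it; inconclusive = flat curve fit with activity between 30% and 70%, or invalid poor fit; inactive = AC50 beyond ten times the top tested dose.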
Pick one and only one: yes (1) = active, no (0) = inactive

In: # outcome recorded in this test, key = O=C(NCc1csc(-c2cccs2)n1)Nc1ccc(F)cc1F
Out: no (0)

In: # outcome recorded in this test, key = COc1ccc(-c2nc(C#N)c(NC(C)c3ccccc3)o2)cc1OC (stereo unspecified)
Out: no (0)

In: # outcome recorded in this test, key = COc1ccccc1NS(=O)(=O)c1cc(Cl)ccc1OC
Out: no (0)

More entries:
In: # outcome recorded in this test, key = Cc1ccc(S(=O)(=O)Cc2ccc(C(=O)N3CCN(c4ccccn4)CC3)o2)cc1
Out: no (0)

In: # outcome recorded in this test, key = Cc1cc(Nc2nc3c(c(=O)n(C)c(=O)n3C)n2C)n(-c2ccc(Cl)cc2)n1
Out: no (0)

In: # outcome recorded in this test, key = Cc1ccc(S(=O)(=O)N2[C@@H](c3ccc(Br)cc3)C(C(=O)O)=C[C@H]2CC2CCCC2)cc1
Out: yes (1)

In: # outcome recorded in this test, key = CN(C)S(=O)(=O)c1ccc(C(=O)/C=C/c2cccnc2)cc1
Out: no (0)

---

# Test system: S. cerevisiae Mot1-301 ts growth rescue, BacTiter-Glo ATP luminescence
# Assay Details: restored Mot1-301 yeast growth at 38.5C – whole organism, S. cerevisiae, Mot1-301 ts mutant, luminescence, dose retest, SUMOylation pathway inhibitor project, confirmation (AID 463204);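 also: growth at restrictive 38.5 degrees C of Mot1-301 OY566 strain; actives raise luminescence by restoring growth of the ts mutant at high temperature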
Active and inactive are the calls of the source.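 How the source made its calls: active means AC50 no more than ten times the top concentration tested, that is within one log above it; inconclusive means flat curve fit with activity between 30% and 70%, or invalid poor fit; inactive means AC50 beyond ten times the top tested dose.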
Pick one and only one: active, inactive

Before answering, review these 5 worked examples.
In: # outcome recorded in this test, key = CCCOc1ccc(C(=O)NCc2ccco2)cc1
Out: inactive

In: # outcome recorded in this test, key = OCCN1CN=C(Nc2nc3ccccc3o2)NC1
Out: inactive

In: # outcome recorded in this test, key = O=C(Nc1ccccc1F)C1CCN(C(=O)Cc2ccccc2)CC1
Out: inactive

In: # outcome recorded in this test, key = CC1CCN(CCNC(=O)C2CCCN(S(=O)(=O)c3cccc4nsnc34)C2)CC1 (configuration not stated)
Out: inactive

In: # outcome recorded in this test, key = O=C(N/N=C/c1ccccn1)NC12CC3CC(CC(C3)C1)C2
Out: inactive

More entries:
In: # outcome recorded in this test, key = COc1ccc2oc(=O)c(C(=O)NCc3ccco3)cc2c1
Out: inactive

In: # outcome recorded in this test, key = O=C(O)c1ccc(S(=O)(=O)N2CCN(c3ccccn3)CC2)cc1
Out: inactive

In: # outcome recorded in this test, key = COCCNC(=O)NC(=O)CSc1nc(C)c(C)c(C)n1
Out: inactive

In: # outcome recorded in this test, key = CCn1c(SCC(N)=O)nnc1-c1cc2c(C)nn(-c3ccccc3)c2s1
Out: inactive

In: # outcome recorded in this test, key = Cc1c(C2(O)CCCCC2)[nH]c2ccc(C#N)cc12
Out: active

In: # outcome recorded in this test, key = O=C(COc1cccc2cccnc12)N1CCc2ccccc21
Out: inactive

In: # outcome recorded in this test, key = COc1ccc(N=Cc2c(O)n(C)c(=O)[nH]c2=O)cc1
Out: inactive

---

# Tested on: S. cerevisiae Mot1-301 ts growth rescue, BacTiter-Glo ATP luminescence
# Assay Details: restored Mot1-301 yeast growth at 38.5C – whole organism, S. cerevisiae, Mot1-301 ts mutant, luminescence, dose retest, SUMOylation pathway inhibitor project, confirmation (AID 463204);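 also: growth at restrictive 38.5 degrees C of Mot1-301 OY566 strain; actives raise luminescence by restoring growth of the ts mutant at high temperature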
Activity calls are given as the source filed them.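 How the source made its calls: active means AC50 no more than ten times the top concentration tested, that is within one log above it; inconclusive means flat curve fit with activity between 30% and 70%, or invalid poor fit; inactive means AC50 beyond ten times the top tested dose.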
Pick one and only one: y = active, n = inactive

Before answering, review these 8 worked examples.
In: # outcome recorded in this test, key = CCN(CC)S(=O)(=O)c1ccc(N2CCCC2)c(C(=O)OCC(=O)Nc2cc(C)on2)c1
Out: n

In: # outcome recorded in this test, key = COc1ccccc1CNC(=O)C1CCC(CNS(=O)(=O)c2ccc(C)cc2)CC1 (stereo unspecified)
Out: n

In: # outcome recorded in this test, key = Cc1ccc(-c2csc3ncn(CC(=O)N4CCOCC4)c(=O)c23)cc1
Out: n

In: # outcome recorded in this test, key = Cc1nc2c(-c3ccc(F)cc3)cnn2c2c1CCC2
Out: n

In: # outcome recorded in this test, key = COc1ccc(NC(=S)NC(=O)C2CCC2)cc1
Out: n

In: # outcome recorded in this test, key = CC(C)(C)C1c2[nH]c3ccccc3c2CCN1Cc1cccc(OCCO)c1 (stereo unspecified)
Out: n

In: # outcome recorded in this test, key = CCC(C(=O)Nc1cccnc1)c1ccccc1 (stereo unspecified)
Out: n

In: # outcome recorded in this test, key = O=C(Nc1ccncc1Cl)c1ccncc1
Out: n

More entries:
In: # outcome recorded in this test, key = CC(=O)N(C(C)=O)c1c(C#N)c(C)n(-c2ccccc2)c1C(=O)c1ccccc1
Out: y

In: # outcome recorded in this test, key = CCn1c(SCC(=O)OC)nnc1-c1ccncc1
Out: n

In: # outcome recorded in this test, key = Cc1ccc(NC(=O)/C=N/OCC(=O)NCc2ccccc2Cl)cc1
Out: n

---

# System: S. cerevisiae Mot1-301 ts growth rescue, BacTiter-Glo ATP luminescence
# Assay Details: restored Mot1-301 yeast growth at 38.5C – whole organism, S. cerevisiae, Mot1-301 ts mutant, luminescence, dose retest, SUMOylation pathway inhibitor project, confirmation (AID 463204);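 also: growth at restrictive 38.5 degrees C of Mot1-301 OY566 strain; actives raise luminescence by restoring growth of the ts mutant at high temperature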
Calls of active or inactive are those of the source.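 Rule for the calls: active = AC50 no more than ten times the top concentration tested, that is within one log above it; inconclusive = flat curve fit with activity between 30% and 70%, or invalid poor fit; inactive = AC50 beyond ten times the top tested dose.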
Pick one and only one: T = active, F = inactive

In: # outcome recorded in this test, key = COc1ccc(C2SCC(=O)Nc3c2c(=O)[nH]n3C2CCCCC2)cc1 (stereo unspecified)
Out: F

In: # outcome recorded in this test, key = O=C(NCCc1cnccn1)C1CCC(=O)N(Cc2ccc(Cl)cc2)C1 (stereo unspecified)
Out: F

In: # outcome recorded in this test, key = O=C(OCC#CCSc1nnc(-c2ccccc2)o1)c1cc2ccccc2o1
Out: F

In: # outcome recorded in this test, key = CN(C)C(=O)CNC(=O)C1CCCCC1
Out: F

In: # outcome recorded in this test, key = Cc1cccc(NC(=S)NC(=O)/C=C/c2ccco2)c1
Out: F

More entries:
In: # outcome recorded in this test, key = CS(=O)(=O)N(CC(=O)Nc1ccccc1C(=O)N1CCCC1)c1ccc2c(c1)OCO2
Out: F

In: # outcome recorded in this test, key = Cc1ccc(S(=O)(=O)NNC(=O)c2cc3cc4ccccc4nc3s2)cc1
Out: F

In: # outcome recorded in this test, key = CCOC(=O)C1=Nc2ccccc2C1=[N+]=[N-]
Out: T

In: # outcome recorded in this test, key = N[C@@H](Cc1ccc(O)c(I)c1)C(=O)O
Out: F

In: # outcome recorded in this test, key = CCOC(=O)C1CCN(Cc2ccc(OCc3ccccc3)cc2)CC1
Out: F

In: # outcome recorded in this test, key = COc1cccc(-n2c(SCC(=O)NC3CCCCC3)nc3n[nH]c(C)c3c2=N)c1
Out: F
